The origin of these recorded values is patent US10287581B2.

biological target: SS-DNA: single-stranded DNA; assay: Binding of single-stranded DNA to VEPEP-6 peptides by fluorescence spectroscopy; conditions: single stranded nucleic acid (DNA 36 mer); read-out: dissociation constant
result.type: Kd (nM)
Note: unit nM is implicit; provide only the numeric part.

Give recorded Kd. Ac-X1LFLARWRsLLRSsLWRLLWK-cysteamide [ST-VEPEP-6aa]
4

* * *

tested on: siRNA; assay: Binding of siRNA to VEPEP-6 peptides by fluorescence spectroscopy; conditions: cargo siRNA
result.type: Binding

Ac-[βA/S]LWRALWRLWR[S/T]LWRLWR[K/R]A-cysteamide [VEPEP-6d]: yes
Ac-[βA/S]LWRALWRL[L/I]RALWRLLW[K/R]A-cysteamide [VEPEP-6e]: yes
Ac-[βA/S]LWRALWRL[L/C/I]RNLWRLLW[K/R]A-cysteamide [VEPEP-6f]: yes
Ac-[βA/S]LFRALWRLLR[S/T]LWRLLW[K/R]-cysteamide [VEPEP-6a]: yes
Ac-[βA/S]LWRALWRL[L/C/I]R[S/T]LWRLWR[K/R]A-cysteamide [VEPEP-6c]: yes

Give recorded Binding. Ac-[βA/S]LWRALWRLWR[S/T]LWRLLW[K/R]A-cysteamide [VEPEP-6b]
yes

* * *

assay: Binding of AZT to VEPEP-6 by quenching of tryptophan fluorescence; settings: cargo AZT
result.type: Binding

Consider the following illustrative entries.
Ac-[βA/S]LWRALWRLWR[S/T]LWRLLW[K/R]A-cysteamide [VEPEP-6b]: no
Ac-[βA/S]LWRALWRLWR[S/T]LWRLWR[K/R]A-cysteamide [VEPEP-6d]: yes
Ac-[βA/S]LFRALWRLLR[S/T]LWRLLW[K/R]-cysteamide [VEPEP-6a]: no
Ac-[βA/S]LWRALWRL[L/I]RALWRLLW[K/R]A-cysteamide [VEPEP-6e]: yes
Ac-[βA/S]LWRALWRL[L/C/I]R[S/T]LWRLWR[K/R]A-cysteamide [VEPEP-6c]: yes

Give recorded Binding. Ac-[βA/S]LWRALWRL[L/C/I]RNLWRLLW[K/R]A-cysteamide [VEPEP-6f]
yes

* * *

Assay: Binding of porphyrin to VEPEP-6 by quenching of tryptophan fluorescence
Conditions: cargo porphyrin
Method: FIG. 3: Binding of small hydrophobic molecules to VEPEP-6 as monitored by fluorescence spectroscopy. The binding of Doxorubicin, AZT and Porphyrin to VEPEP-6 was monitored by following the quenching of tryptophan-intrinsic VEPEP-6 fluorescence and that of fluoresceine-labelled-Guanosine (FAM-G) by monitoring FAM-fluorescence. Dissociation constants were calculated from data fitting. […]
Lab note - cut at 500 nM for Kd: Satisfied if strictly below, Not satisfied if not.

Item Ac-[βA/S]LWRALWRL[L/C/I]R[S/T]LWRLWR[K/R]A-cysteamide [VEPEP-6c] : Kd beneath 500 nM, strictly?
Not satisfied

Item Ac-[βA/S]LWRALWRL[L/C/I]RNLWRLLW[K/R]A-cysteamide [VEPEP-6f] : Kd beneath 500 nM, strictly?
Satisfied

Item Ac-[βA/S]LWRALWRLWR[S/T]LWRLLW[K/R]A-cysteamide [VEPEP-6b] : Kd beneath 500 nM, strictly?
Not satisfied

Item Ac-[βA/S]LWRALWRL[L/I]RALWRLLW[K/R]A-cysteamide [VEPEP-6e] : Kd beneath 500 nM, strictly?
Satisfied

Item Ac-[βA/S]LFRALWRLLR[S/T]LWRLLW[K/R]-cysteamide [VEPEP-6a] : Kd beneath 500 nM, strictly?
Not satisfied

* * *

This listing pairs substances with measured pKd.
assay: Binding of AZT to VEPEP-6 by quenching of tryptophan fluorescence; settings: cargo AZT
Would you please state pKd, meaning minus log10 of the concentration in mol/L, as a bare number?

Ac-[βA/S]LWRALWRL[L/C/I]R[S/T]LWRLWR[K/R]A-cysteamide [VEPEP-6c]: 6.52
Ac-[βA/S]LWRALWRL[L/C/I]RNLWRLLW[K/R]A-cysteamide [VEPEP-6f]: 5.62
Ac-[βA/S]LWRALWRL[L/I]RALWRLLW[K/R]A-cysteamide [VEPEP-6e]: 6.05

Give recorded pKd. Ac-[βA/S]LWRALWRLWR[S/T]LWRLWR[K/R]A-cysteamide [VEPEP-6d]
7.00

* * *

test: Binding of FAM-guanosine to VEPEP-6 by FAM fluorescence; settings: cargo FAM-guanosine
This listing pairs substances with measured pKd.
Would you please state pKd, meaning minus log10 of the concentration in mol/L, as a bare number?

Ac-[βA/S]LWRALWRLWR[S/T]LWRLWR[K/R]A-cysteamide [VEPEP-6d]: 6.10
Ac-[βA/S]LWRALWRL[L/I]RALWRLLW[K/R]A-cysteamide [VEPEP-6e]: 5.64

Give recorded pKd. Ac-[βA/S]LWRALWRL[L/C/I]RNLWRLLW[K/R]A-cysteamide [VEPEP-6f]
5.55

Give recorded pKd. Ac-[βA/S]LWRALWRL[L/C/I]R[S/T]LWRLWR[K/R]A-cysteamide [VEPEP-6c]
5.40

* * *

target: SS-DNA: single-stranded DNA; assay: Binding of single-stranded DNA to VEPEP-6 peptides by fluorescence spectroscopy; settings: cargo SS-DNA; read-out: Kd
pKd: −log10 of the molar value.
This listing pairs substances with measured pKd.

Consider the following illustrative entries.
Ac-[βA/S]LWRALWRL[L/C/I]RNLWRLLW[K/R]A-cysteamide [VEPEP-6f]: 7.00 to 7.30
Ac-[βA/S]LWRALWRL[L/C/I]R[S/T]LWRLWR[K/R]A-cysteamide [VEPEP-6c]: 7.00 to 7.30
Ac-[βA/S]LWRALWRLWR[S/T]LWRLWR[K/R]A-cysteamide [VEPEP-6d]: 7.00 to 7.30
Ac-[βA/S]LWRALWRLWR[S/T]LWRLLW[K/R]A-cysteamide [VEPEP-6b]: 7.00 to 7.30
Ac-[βA/S]LFRALWRLLR[S/T]LWRLLW[K/R]-cysteamide [VEPEP-6a]: 7.00 to 7.30

// next entry
Give recorded pKd. Ac-[βA/S]LWRALWRL[L/I]RALWRLLW[K/R]A-cysteamide [VEPEP-6e]
7.00 to 7.30

* * *

This listing pairs substances with measured Kd.
test: Binding of doxorubicin to VEPEP-6 by quenching of tryptophan fluorescence; settings: cargo Doxorubicin
Note: unit µM is implicit; provide only the numeric part.

Ac-[βA/S]LWRALWRL[L/I]RALWRLLW[K/R]A-cysteamide [VEPEP-6e]: 0.5
Ac-[βA/S]LWRALWRL[L/C/I]RNLWRLLW[K/R]A-cysteamide [VEPEP-6f]: 0.2
Ac-[βA/S]LWRALWRLWR[S/T]LWRLWR[K/R]A-cysteamide [VEPEP-6d]: 0.5
Ac-[βA/S]LWRALWRL[L/C/I]R[S/T]LWRLWR[K/R]A-cysteamide [VEPEP-6c]: 0.03
Ac-[βA/S]LWRALWRLWR[S/T]LWRLLW[K/R]A-cysteamide [VEPEP-6b]: 0.7

Give recorded Kd. Ac-[βA/S]LFRALWRLLR[S/T]LWRLLW[K/R]-cysteamide [VEPEP-6a]
1

* * *

experiment: Binding of FAM-guanosine to VEPEP-6 by FAM fluorescence; conditions: cargo FAM-guanosine
result.type: Binding

Consider the following illustrative entries.
Ac-[βA/S]LWRALWRL[L/C/I]RNLWRLLW[K/R]A-cysteamide [VEPEP-6f]: yes
Ac-[βA/S]LWRALWRLWR[S/T]LWRLLW[K/R]A-cysteamide [VEPEP-6b]: no
Ac-[βA/S]LWRALWRL[L/C/I]R[S/T]LWRLWR[K/R]A-cysteamide [VEPEP-6c]: yes
Ac-[βA/S]LFRALWRLLR[S/T]LWRLLW[K/R]-cysteamide [VEPEP-6a]: no
Ac-[βA/S]LWRALWRLWR[S/T]LWRLWR[K/R]A-cysteamide [VEPEP-6d]: yes

// next entry
Give recorded Binding. Ac-[βA/S]LWRALWRL[L/I]RALWRLLW[K/R]A-cysteamide [VEPEP-6e]
yes
